Biological target: T1, mouse programmed cell death protein 1 Fc fusion protein (mPD-1-Fc), mPD-1 C60S (aa 25-167) (Mus musculus, UniProt Q02242, stabilised)
T1 construct: not cleaved; source: Expi293F, purified (Protein A, SEC; dimeric fraction); not shown: Fc (human), C-terminal, kept
Test: SPR; Carterra LSA; Fab from the ammonium sulfate precipitate of the culture supernatant immobilised on a NiHC200M chip; hPD-1 (1-1024 nM) or mPD-1-Fc (4-1024 nM) as analyte, fourfold dilution series, no regeneration; HBS-EP pH 7.4, 25 °C; medians over the spots of a construct, KD = koff/kon
Conditions: one partner purified
observationType: kon (M⁻¹ s⁻¹)
Write the number in M⁻¹ s⁻¹ without appending the unit.

Solved cases (2 shown):
binder	kon (M⁻¹ s⁻¹)
toripalimab Fab L.V99G (Fab, V domains shown, as the heavy chain of Sm3; light chain of Sm3 with this change; numbers count from the chain's first residue; source: Brevibacillus, culture supernatant (ammonium sulfate precipitate); not shown: 6xHis, C-terminal, kept; 6xHN, C-terminal, kept) VH: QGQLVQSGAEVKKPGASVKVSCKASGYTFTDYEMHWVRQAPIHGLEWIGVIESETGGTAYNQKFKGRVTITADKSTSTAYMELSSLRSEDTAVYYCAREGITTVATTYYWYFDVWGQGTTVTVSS VL: DVVMTQSPLSLPVTLGQPASISCRSSQSIVHSNGNTYLEWYLQKPGQSPQLLIYKVSNRFSGVPDRFSGSGSGTDFTLKISRVEAEDVGVYYCFQGSHGPLTFGQGTKLEIK	11800
toripalimab Fab L.V99F (Fab, V domains shown, as the heavy chain of Sm3; light chain of Sm3 with this change; numbers count from the chain's first residue; source: Brevibacillus, culture supernatant (ammonium sulfate precipitate); not shown: 6xHis, C-terminal, kept; 6xHN, C-terminal, kept) VH: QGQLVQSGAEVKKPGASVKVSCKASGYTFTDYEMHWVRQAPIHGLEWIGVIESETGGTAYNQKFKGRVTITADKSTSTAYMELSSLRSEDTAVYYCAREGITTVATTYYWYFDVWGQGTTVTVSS VL: DVVMTQSPLSLPVTLGQPASISCRSSQSIVHSNGNTYLEWYLQKPGQSPQLLIYKVSNRFSGVPDRFSGSGSGTDFTLKISRVEAEDVGVYYCFQGSHFPLTFGQGTKLEIK	8450

Next up:
### Prompt Which kon reading was recorded for the binder toripalimab Fab L.R24Y (Fab, V domains shown, as the heavy chain of Sm3; light chain of Sm3 with this change; numbers count from the chain's first residue; source: Brevibacillus, culture supernatant (ammonium sulfate precipitate); not shown: 6xHis, C-terminal, kept; 6xHN, C-terminal, kept) VH: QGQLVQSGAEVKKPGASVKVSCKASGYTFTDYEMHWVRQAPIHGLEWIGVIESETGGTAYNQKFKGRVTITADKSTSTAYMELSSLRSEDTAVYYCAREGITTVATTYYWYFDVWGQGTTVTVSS VL: DVVMTQSPLSLPVTLGQPASISCYSSQSIVHSNGNTYLEWYLQKPGQSPQLLIYKVSNRFSGVPDRFSGSGSGTDFTLKISRVEAEDVGVYYCFQGSHVPLTFGQGTKLEIK ?
### Response 35400
